- target.or.test.system: T1, Human EphA2-Fc fusion protein (human EphA2 fused with the Fc portion of a human IgG1) (human, UniProt P29317 24-534, limits assumed)
- T1 construct: also called biotinylated human EphA2-Fc; not shown: Fc portion of a human IgG1
- T1 sequence (P29317 24-534 limits assumed): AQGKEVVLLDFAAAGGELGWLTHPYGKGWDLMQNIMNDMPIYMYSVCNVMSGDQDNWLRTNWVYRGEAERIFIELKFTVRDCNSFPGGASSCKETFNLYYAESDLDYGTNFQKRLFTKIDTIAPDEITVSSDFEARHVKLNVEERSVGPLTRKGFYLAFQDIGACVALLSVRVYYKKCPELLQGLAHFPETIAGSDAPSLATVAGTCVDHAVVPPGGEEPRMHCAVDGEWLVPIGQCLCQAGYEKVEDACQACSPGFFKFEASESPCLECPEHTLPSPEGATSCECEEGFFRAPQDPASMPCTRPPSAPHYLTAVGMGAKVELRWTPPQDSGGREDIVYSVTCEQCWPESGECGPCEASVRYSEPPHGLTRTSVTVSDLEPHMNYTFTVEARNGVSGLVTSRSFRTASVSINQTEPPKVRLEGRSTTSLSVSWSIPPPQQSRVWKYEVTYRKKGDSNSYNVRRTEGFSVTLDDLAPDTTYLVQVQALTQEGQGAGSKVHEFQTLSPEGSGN
- assay.protocol: SPR (BIAcore 3000), EphA2-Fc coupled to CM5 chip, IgG in solution, 1:1 Langmuir fit
reported.endpoint: koff (s⁻¹)
Numbers only, in s⁻¹.

# binder, koff / s⁻¹
records = [
    ("VH-2G6/VL-12C8 (humanized) full length human IgG1 (antibody, V domains shown, Human IgG1 / human kappa, expressed in HEK 293 cells) VH: EVQLVESGGGVVRPGGSLRLSCAASGFTVSDYSMNWVRQAPGKGLEWIGFIRNKANDYTTEYSASVKGRFTISRDDSKNTLYLQMNSLKTEDTAVYYCTTYPRYHAMDSWGQGTMVTVSS VL: AIQLTQSPSSLSASVGDRVTITCRASQSISNNLHWYLQKPGQSPQLLIYYVFQSISGVPSRFSGSGSGTDFTLTISSLQPEDFATYYCQQSNSWPLTFGGGTKLEIK", 0.00019),
]

Items follow; give koff for each.
1. VH-6H11/VL-8G7 (humanized) full length human IgG1 (antibody, V domains shown, Human IgG1 / human kappa, expressed in HEK 293 cells) VH: EVQLVESGGGLVQPGGSLRLSCAASGFTFSDYSMNWVRQAPGKGLEWVAFIRNKANDYTTEYSASVKGRFTISRDNSKNTLYLQMNSLRAEDTAMYYCARYPRYHAMDSWGQGTLVTVSS VL: EIVLTQSPATLSVSPGERATLSCRASQSISNNLHWYQQKPGKAPKSLIYYVFQSISGVPSRFSGSGSGTDFTLTINSLEAEDAATYYCQQSNSWPLTFGGGTKVDIK
2. VH-7E8/VL-8G7 (humanized) full length human IgG1 (antibody, V domains shown, Human IgG1 / human kappa, expressed in HEK 293 cells) VH: EVQLVESGGGLVKPGGSLRLSCAASGFTFSDYSMNWVRQASGKGLEWVGFIRNKANDYTTEYSASVKGRFTISRDDSKNTLYLQMNSLKTEDTAVYYCTTYPRYHAMDSWGQGTLVTVSS VL: EIVLTQSPATLSVSPGERATLSCRASQSISNNLHWYQQKPGKAPKSLIYYVFQSISGVPSRFSGSGSGTDFTLTINSLEAEDAATYYCQQSNSWPLTFGGGTKVDIK
3. mAb B233 (mouse anti-human EphA2 monoclonal antibody) (antibody, V domains shown, Murine hybridoma antibody; also called B233 (murine); parental mAb B233) VH: EVKLVESGGGLVQPGGSLSLSCAASGFTFTDYSMNWVRQPPGKALEWLGFIRNKANDYTTEYSASVKGRFTISRDNSQSILYLQMNALRAEDSATYYCVRYPRYHAMDSWGQGTSVTVSS VL: DIVLTQSPATLSVTPGDSVNLSCRASQSISNNLHWYQQKSHESPRLLIKYVFQSISGIPSRFSGSGSGTDFTLSINSVETEDFGMYFCQQSNSWPLTFGAGTKLELK

OUTPUT:
1: 0.00018; 2: 0.00045; 3: 0.00011
